Target: NS1 protein (RSV non-structural protein NS1) (Human respiratory syncytial virus A2, UniProt P0DOE9)
Sequence (P0DOE9 whole entry): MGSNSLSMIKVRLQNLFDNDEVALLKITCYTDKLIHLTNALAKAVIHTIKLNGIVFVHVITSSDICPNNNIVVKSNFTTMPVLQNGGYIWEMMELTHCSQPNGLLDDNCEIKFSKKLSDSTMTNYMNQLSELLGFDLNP
reportedProperty: Kd (µM)
Could you give me the number in µM? Just the number is fine.

IN: Name the reported Kd value associated with the molecule O=C(O)[C@H]1O[C@@H](Oc2cc3oc(-c4ccccc4)cc(=O)c3c(O)c2O)[C@H](O)[C@@H](O)[C@@H]1O [baicalin]
OUT: 11.2
